Experiment: gradient 5% acetonitrile 3 min, to 50% in 2 min, to 85% in 15 min, held 3 min, 100 µL/min
Conditions: column: Zorbax Extend-C18 2.1 x 50 mm; eluents: water / acetonitrile, 0.1% formic acid
In this section, each of the compounds is paired with its reported RP-LC retention time.
Give the quantity in s, number only.

Looking up Cc1ccc(-c2noc(C3CCCN3C(=O)c3ccccc3F)n2)cc1 (centres undefined) , I see its RP-LC retention time listed as 1030

The compound listed as CC(C)Cn1c(=O)c(N2CCN(C(=O)NCCc3ccccc3)CC2)nc2ccncc21 has a reported RP-LC retention time of 668

Reported RP-LC retention time for O=C(NCc1cccs1)C1CCN(c2nc3ccc(Cl)cc3[nH]2)CC1 was 644

###

Test: gradient 5% acetonitrile 3 min, to 50% in 2 min, to 85% in 15 min, held 3 min, 100 µL/min
Settings: column: Zorbax Extend-C18 2.1 x 50 mm; eluents: water / acetonitrile, 0.1% formic acid
A collection of compounds and their measured RP-LC retention time
Write down the numeric answer in s and omit the unit.

Examples with their reported RP-LC retention time follow.
compound="CC1(C(=O)NCc2ccc3c(c2)OCO3)Oc2cccnc2NC1=O (stereo unspecified)" recorded_number=672
compound=CN1C(=O)[C@H]2CN(Cc3ccc(Cl)cc3)C[C@H]2C1=O recorded_number=598
compound=CCn1cnc2cc(CNC(=O)Cc3ccsc3)ccc21 recorded_number=578
compound="Cc1noc(C)c1CCC(=O)N1CCCCC1c1nncn1C (stereo unspecified)" recorded_number=607
compound="O=C(NCCN1CCOCC1)c1ccc(CS(=O)Cc2cccc(Cl)c2)o1 (stereo unspecified)" recorded_number=601
compound="CN(Cc1cccnc1)C(=O)C12CCC=C1N(C1CCCC1)C(=O)CC2 (stereo unspecified)" recorded_number=577
compound=O=C(O)C1CCN(S(=O)(=O)C2CC2)CC1 recorded_number=585
compound=O=c1c(NCCc2ccccc2)nc2ccncc2n1Cc1ccccc1 recorded_number=742
compound="CC1=C(c2ccccc2)S(=O)(=O)N=C1N1CCCN(C(=O)C2CCOC2)CC1 (stereo unspecified)" recorded_number=675
compound="CCC(C)C(NC(=O)Cc1cccc(F)c1)C(=O)Nc1nc2ccccc2[nH]1 (stereo unspecified)" recorded_number=736

Proceeding to the next compound to report its RP-LC retention time.
Record Cc1cc(C)cc(N2CCC(NC(=O)c3ccc(Br)o3)C2=O)c1 (stereo unspecified) , field RP-LC retention time: 894

###

Assay: gradient 5% acetonitrile 3 min, to 50% in 2 min, to 85% in 15 min, held 3 min, 100 µL/min
Conditions: column: Zorbax Extend-C18 2.1 x 50 mm; eluents: water / acetonitrile, 0.1% formic acid
QUANTITY_MEASURED: RP-LC retention time (s)
Dear colleague, please return just the value in s, with no unit written.

Consider the following illustrative entries.
compound=Cn1nccc1C(=O)N1CCN(c2cc(=O)n(C)c(=O)n2C)CC1 recorded_number=587
compound=Cc1ccc(-n2nc(C)c3c(C)cc(OCC(=O)Nc4ccc5c(c4)OCO5)nc32)cc1 recorded_number=1020
compound=CN1C(=O)CCc2cc(NS(=O)(=O)Cc3cccc(Cl)c3)ccc21 recorded_number=751
compound=COCCN1CC2CN(C(=O)Nc3ccc4c(c3)OCCO4)CC(C1)O2 recorded_number=580
compound=Cc1ccc(Nc2nc(C)cc(N3CCN(S(=O)(=O)c4cc(C(C)C)ccc4C)CC3)n2)cc1 recorded_number=950
compound="CC(CCc1ccccc1)NCc1ccc2c(c1)n(C)c(=O)n2C (stereo not given)" recorded_number=610

Entry under test: O=C(CSc1ccc(-n2ccnc2)nn1)Nc1ccc(OC(F)(F)F)cc1 . Its RP-LC retention time was 618

So, Cc1noc(C)c1CC(=O)N1CCc2ccccc2[C@H]1C ? Its RP-LC retention time was 732

In plain terms, CN(C)CCCNc1oc(-c2ccccc2F)nc1S(=O)(=O)c1ccccc1 has a documented RP-LC retention time of 666

Noted for Cc1cccn2cc(C(=O)NCc3ccc(Cl)cc3)nc12 : its RP-LC retention time reads 704

Short answer for O=C(c1ccncc1)N1CCc2cc(-c3csc(C4CC4)n3)ccc21 : RP-LC retention time was 848

Noted for COc1ccc(NC(=O)Cn2nc(N3CCSCC3)c3ccccc3c2=O)cc1Cl : its RP-LC retention time reads 949

The compound identified as CC(C)N1C(=O)c2cccnc2Sc2cc(NC(=O)C(C)(C)C)ccc21 registered its RP-LC retention time at 828

The compound identified as CCC(C)NC(=O)C1c2cc(OC)c(OC)cc2C(=O)N(C)C1c1ccc(OC)c(OC)c1 (stereo not given) registered its RP-LC retention time at 710

Measured RP-LC retention time, CCc1nnc([C@@H]2CC(F)(F)CN2C(=O)COc2ccc(F)cc2)o1 : 800

RP-LC retention time for Cc1nc(CC(=O)Nc2ccc(F)c(Cl)c2)sc1C(=O)NC1CC1 is 759

// sample Cc1cc(C)nc(Nc2nc3ccccc3[nH]2)n1 , its RP-LC retention time was 615
